All figures here come from PubChem BioAssay AID651630.

Test system: DAPI
METHOD: TAG lipid buildup inhibition with viability readout – cell-based, panel, Nile Red and DAPI fluorescence, H9c2, dose response (AID 651630);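 note: cells exposed to compound overnight before fixation and staining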
EXPERIMENTAL SETUP: H9c2 cells, DAPI nuclear fluorescence (cytotoxicity counter-readout), oleic acid, run 2
MEASURE: IC50 cytotoxicity (DAPI nuclear signal decrease)

Consider the reported IC50 cytotoxicity (DAPI nuclear signal decrease) for these molecules:
Clc1ccc(-c2csc(NNC3=NCCCCC3)n2)cc1 = > 25 µM
Cc1cc(Nc2ccc(C)c(Cl)c2)nc(N2CCOCC2)n1 = > 25 µM
C[C@H](O)[C@@H]1CN2CCc3c([nH]c4ccc(-c5ccc6c(c5)OCO6)cc34)[C@@H]2C[C@@H]1N(C)C(=O)Nc1cc(Cl)cc(Cl)c1 = > 25 µM

Turning now to a further molecule:
[Q] Hello, I am looking for reported IC50 cytotoxicity (DAPI nuclear signal decrease) with DAPI for CC(C)C[C@@H](CN1CCCC1CN1C(=S)NC[C@@H]1Cc1ccc(O)cc1)N1C[C@H](Cc2ccccc2)N(CC2CCCCC2)C1=S (some centres undefined) . Could you help?
[A] 21.8 µM
